System: SW-620
EXPERIMENT SUMMARY: Antiproliferative activity against human SW620 cells at 10 uM incubated for 48 hrs by sulforhodamine B assay
Type: functional, cell-based
The source made the active and inactive calls. No cut-off for these calls is given here.
PROPERTY MEASURED: Activity

[[record]]
molecule = "CC(=O)O[C@@H](C)[C@@H]1O[C@@H]2CC(=O)O[C@@H]2[C@H]1O"
target_or_test_system = "SW-620"
obs_value = "inactive"

[[record]]
molecule = "CC(=O)O[C@H](C)[C@@H]1O[C@@H]2CC(=O)O[C@@H]2[C@H]1O"
target_or_test_system = "SW-620"
obs_value = "inactive"

[[record]]
molecule = "O=C(/C=C/c1ccccc1)O[C@H](c1ccccc1)[C@@H]1O[C@@H]2CC(=O)O[C@@H]2[C@H]1O"
target_or_test_system = "SW-620"
obs_value = "Active"

[[record]]
molecule = "O=C1C[C@H]2O[C@H]([C@@H](O)c3ccccc3)[C@H](O)[C@H]2O1"
target_or_test_system = "SW-620"
obs_value = "Active"

[[record]]
molecule = "O=C1C[C@H]2O[C@H]([C@H](O)c3ccccc3)[C@H](O)[C@H]2O1"
target_or_test_system = "SW-620"
obs_value = "Active"

[[record]]
molecule = "CC(=O)O[C@@H](C)[C@H]1O[C@H]2CC(=O)O[C@H]2[C@@H]1O"
target_or_test_system = "SW-620"
obs_value = "inactive"

[[record]]
molecule = "CC(=O)O[C@H](C)[C@H]1O[C@H]2CC(=O)O[C@H]2[C@@H]1O"
target_or_test_system = "SW-620"
obs_value = "inactive"


====

System: SK-MEL-28
EXPERIMENT SUMMARY: Antiproliferative activity against human SK-MEL-28 cells at 10 uM incubated for 48 hrs by sulforhodamine B assay
Assay type: functional, cell-based
Calls of active or inactive are those of the source. The calls are words filed in the database; no cut-off is given here.
Labels: label 1 (active), label 0 (inactive)

[[record]]
molecule = "CC(=O)O[C@@H](C)[C@H]1O[C@H]2CC(=O)O[C@H]2[C@@H]1O"
target_or_test_system = "SK-MEL-28"
assigned_label = "label 0"

[[record]]
molecule = "O=C(/C=C/c1ccccc1)O[C@H](c1ccccc1)[C@@H]1O[C@@H]2CC(=O)O[C@@H]2[C@H]1O"
target_or_test_system = "SK-MEL-28"
assigned_label = "label 1"

[[record]]
molecule = "O=C1C[C@H]2O[C@H]([C@@H](O)c3ccccc3)[C@H](O)[C@H]2O1"
target_or_test_system = "SK-MEL-28"
assigned_label = "label 1"

[[record]]
molecule = "CC(=O)O[C@H](C)[C@H]1O[C@H]2CC(=O)O[C@H]2[C@@H]1O"
target_or_test_system = "SK-MEL-28"
assigned_label = "label 0"

[[record]]
molecule = "CC(=O)O[C@H](C)[C@@H]1O[C@@H]2CC(=O)O[C@@H]2[C@H]1O"
target_or_test_system = "SK-MEL-28"
assigned_label = "label 0"

[[record]]
molecule = "O=C1C[C@H]2O[C@H]([C@H](O)c3ccccc3)[C@H](O)[C@H]2O1"
target_or_test_system = "SK-MEL-28"
assigned_label = "label 1"

[[record]]
molecule = "CC(=O)O[C@@H](C)[C@@H]1O[C@@H]2CC(=O)O[C@@H]2[C@H]1O"
target_or_test_system = "SK-MEL-28"
assigned_label = "label 0"


Taken from ChEMBL document CHEMBL4118033.
